System: TGBC11TKB (Gastric Carcinoma)
Assay: combination Emax (second highest fraction inhibited in the dose matrix, 72 h); higher = more inhibition; extreme values may be limits of the assay
Test Readout: combination Emax
Provide a numeric answer; units are not to be included.

Value of combination Emax reported for the compound Cc1c2c(nn1C)CSCc1cc(n(C)n1)CSc1cc(c3ccccc3c1)OCCCc1c(C(=O)O)n(C)c3c-2c(Cl)ccc13 [AZD5991] + CC(=O)O[C@H]1C(=O)[C@@]2(C)[C@H]([C@H](OC(=O)c3ccccc3)[C@]3(O)C[C@H](OC(=O)[C@H](O)[C@@H](NC(=O)c4ccccc4)c4ccccc4)C(C)=C1C3(C)C)[C@]1(OC(C)=O)CO[C@@H]1C[C@@H]2O [Paclitaxel] (first compound max 1 µM, 7x7, partner max 3 µM) is 0.957

Value of combination Emax reported for the compound CN(CCO)CC[C@H](CSc1ccccc1)Nc1ccc(S(=O)(=O)NC(=O)c2ccc(N3CCC([C@@H](O)c4ccccc4-c4ccc(Cl)cc4)CC3)cc2)cc1S(=O)(=O)C(F)(F)F [AZD4320] + Cn1cnc2c(F)c(Nc3ccc(Br)cc3Cl)c(C(=O)NOCCO)cc21 [Selumetinib] (first compound max 1 µM, 7x7, partner max 3 µM) is 0.469

Value of combination Emax reported for the compound CN(CCO)CC[C@H](CSc1ccccc1)Nc1ccc(S(=O)(=O)NC(=O)c2ccc(N3CCC([C@@H](O)c4ccccc4-c4ccc(Cl)cc4)CC3)cc2)cc1S(=O)(=O)C(F)(F)F [AZD4320] + CC(=O)O[C@H]1C(=O)[C@@]2(C)[C@H]([C@H](OC(=O)c3ccccc3)[C@]3(O)C[C@H](OC(=O)[C@H](O)[C@@H](NC(=O)c4ccccc4)c4ccccc4)C(C)=C1C3(C)C)[C@]1(OC(C)=O)CO[C@@H]1C[C@@H]2O [Paclitaxel] (first compound max 1 µM, 7x7, partner max 3 µM) is 0.994

---

Test system: A704 (Kidney Carcinoma)
Assay: Bliss excess, mean over the matrix (fraction); higher = more synergy
Test Readout: Bliss excess
Provide a numeric answer; units are not to be included.

Study these solved cases before continuing.
[
  {
    "Compound": "CC1(C)CCC(CN2CCN(c3ccc(C(=O)NS(=O)(=O)c4ccc(NCC5CCOCC5)c([N+](=O)[O-])c4)c(Oc4cnc5[nH]ccc5c4)c3)CC2)=C(c2ccc(Cl)cc2)C1 [Venetoclax] + C=CCn1c(=O)c2cnc(Nc3ccc(N4CCN(C)CC4)cc3)nc2n1-c1cccc(C(C)(C)O)n1 [AZD1775] (first compound max 1 µM, partner max 1 µM)",
    "Bliss excess": -0.0283
  },
  {
    "Compound": "CC1(C)CCC(CN2CCN(c3ccc(C(=O)NS(=O)(=O)c4ccc(NCC5CCOCC5)c([N+](=O)[O-])c4)c(Oc4cnc5[nH]ccc5c4)c3)CC2)=C(c2ccc(Cl)cc2)C1 [Venetoclax] + Cn1cnc2c(F)c(Nc3ccc(Br)cc3Cl)c(C(=O)NOCCO)cc21 [Selumetinib] (first compound max 1 µM, 7x7, partner max 3 µM)",
    "Bliss excess": -0.0299
  }
]

Could you now look at the following compound, please?
Value of Bliss excess reported for the compound CN(CCO)CC[C@H](CSc1ccccc1)Nc1ccc(S(=O)(=O)NC(=O)c2ccc(N3CCC([C@@H](O)c4ccccc4-c4ccc(Cl)cc4)CC3)cc2)cc1S(=O)(=O)C(F)(F)F [AZD4320] + C[C@@H](Nc1cc(F)cc(F)c1)c1cc(C(=O)N(C)C)cc2c(=O)cc(N3CCOCC3)oc12 [AZD8186] (first compound max 1 µM, 7x7, partner max 3 µM) is -0.117

---

System: BV-173 (Chronic Myelogenous Leukemia)
Assay: combination Emax (second highest fraction inhibited in the dose matrix, 72 h); higher = more inhibition; extreme values may be limits of the assay
Test Readout: combination Emax
Provide a numeric answer; units are not to be included.

[
  {
    "Compound": "COc1nnc2ccc(N3CCC(c4ccc(OCCN5CCN(C)C(=O)[C@H]5C)cc4)CC3)nn12 [AZD5153] + C[C@@H]1COCCN1C2=NC(=NC(=C2)C3(CC3)[S@](=N)(=O)C)C4=C5C=CNC5=NC=C4 [AZD6738] (first compound max 1 µM, 7x7, partner max 10 µM)",
    "Test Readout": "combination Emax",
    "Numeric Result": 0.95
  }
]

Could you now look at the following compound, please?
Param item: COc1nnc2ccc(N3CCC(c4ccc(OCCN5CCN(C)C(=O)[C@H]5C)cc4)CC3)nn12 [AZD5153] + CN(CC[C@H](CSC1=CC=CC=C1)NC2=C(C=C(C=C2)S(=O)(=O)NC(=O)C3=CC=C(C=C3)N4CCC(CC4)[C@H](C5=CC=CC=C5C6=CC=C(C=C6)Cl)O)S(=O)(=O)C(F)(F)F)CCO [AZD4320] (first compound max 1 µM, 7x7, partner max 1 µM) ; param system: BV-173 (Chronic Myelogenous Leukemia); output combination Emax: 0.957

---

System: IMR-5 (Neuroblastoma)
Test: combination Emax (second highest fraction inhibited in the dose matrix, 72 h); higher = more inhibition; extreme values may be limits of the assay
combination Emax for assorted molecules
Provide a numeric answer; units are not to be included.

[
  {
    "Molecule": "CN(C)CCCOc1ccc(-c2ccc3ncc4c(c3c2)n(C2CCOCC2)c(=O)n4C)cn1 [AZD0156] + CCN(CCO)CCCOc1ccc2c(Nc3cc(CC(=O)Nc4cccc(F)c4)[nH]n3)ncnc2c1 [AZD2811] (first compound max 1 µM, 7x7, partner max 1 µM)",
    "Test Readout": "combination Emax",
    "Numeric Result": 0.967
  }
]

Value of combination Emax reported for the molecule COc1cccc(OCCCN)c1-c1cc(Nc2cnc(C#N)cn2)n[nH]1 [Prexasertib] + CN(C)CCCOc1ccc(-c2ccc3ncc4c(c3c2)n(C2CCOCC2)c(=O)n4C)cn1 [AZD0156] (first compound max 1 µM, 7x7, partner max 1 µM) is 0.963

Value of combination Emax reported for the molecule COc1nnc2ccc(N3CCC(c4ccc(OCCN5CCN(C)C(=O)[C@H]5C)cc4)CC3)nn12 [AZD5153] + CN(CC[C@H](CSC1=CC=CC=C1)NC2=C(C=C(C=C2)S(=O)(=O)NC(=O)C3=CC=C(C=C3)N4CCC(CC4)[C@H](C5=CC=CC=C5C6=CC=C(C=C6)Cl)O)S(=O)(=O)C(F)(F)F)CCO [AZD4320] (first compound max 1 µM, 7x7, partner max 1 µM) is 0.984

---

Test system: NCI-H513 (Other Solid Carcinomas)
Test: combination Emax (second highest fraction inhibited in the dose matrix, 72 h); higher = more inhibition; extreme values may be limits of the assay
Test Readout: combination Emax
Provide a numeric answer; units are not to be included.

Value of combination Emax reported for the molecule CC(=O)c1c(C)c2cnc(Nc3ccc(N4CCNCC4)cn3)nc2n(C2CCCC2)c1=O [Palbociclib] + CN(CC[C@H](CSC1=CC=CC=C1)NC2=C(C=C(C=C2)S(=O)(=O)NC(=O)C3=CC=C(C=C3)N4CCC(CC4)[C@H](C5=CC=CC=C5C6=CC=C(C=C6)Cl)O)S(=O)(=O)C(F)(F)F)CCO [AZD4320] (first compound max 10 µM, 7x7, partner max 1 µM) is 0.205

---

System: HuP-T3 (Pancreatic Carcinoma)
Test: Bliss excess, mean over the matrix (fraction); higher = more synergy
Bliss excess for assorted molecules
Provide a numeric answer; units are not to be included.

Study these solved cases before continuing.
[
  {
    "Molecule": "C=CCn1c(=O)c2cnc(Nc3ccc(N4CCN(C)CC4)cc3)nc2n1-c1cccc(C(C)(C)O)n1 [AZD1775] + C1CN(CCC1(C(=O)N[C@@H](CCO)C2=CC=C(C=C2)Cl)N)C3=NC=NC4=C3C=CN4 [Capivasertib] (first compound max 3 µM, partner max 3 µM)",
    "Bliss excess": -0.0608
  },
  {
    "Molecule": "Cc1cc2ncnn2cc1Nc1ncc2c(n1)n(C1CCOCC1)c(=O)n2C [AZD7648] + C[C@@H]1COCCN1C2=NC(=NC(=C2)C3(CC3)[S@](=N)(=O)C)C4=C5C=CNC5=NC=C4 [AZD6738] (first compound max 10 µM, 7x7, partner max 10 µM)",
    "Bliss excess": -0.0453
  },
  {
    "Molecule": "CCc1c2c(nc3ccc(O)cc13)-c1cc3c(c(=O)n1C2)COC(=O)[C@]3(O)CC [SN-38] + O=C(c1cc(Cc2n[nH]c(=O)c3ccccc23)ccc1F)N1CCN(C(=O)C2CC2)CC1 [Olaparib] (first compound max 0.3 µM, 7x7, partner max 10 µM)",
    "Bliss excess": -0.0406
  },
  {
    "Molecule": "Cc1cc2ncnn2cc1Nc1ncc2c(n1)n(C1CCOCC1)c(=O)n2C [AZD7648] + O=C(c1cc(Cc2n[nH]c(=O)c3ccccc23)ccc1F)N1CCN(C(=O)C2CC2)CC1 [Olaparib] (first compound max 10 µM, 7x7, partner max 10 µM)",
    "Bliss excess": -0.0254
  },
  {
    "Molecule": "Cc1nc(Nc2ncc(C(=O)Nc3c(C)cccc3Cl)s2)cc(N2CCN(CCO)CC2)n1 [Dasatinib] + CC(=O)Nc1cccc(-n2c(=O)n(C3CC3)c(=O)c3c(Nc4ccc(I)cc4F)n(C)c(=O)c(C)c32)c1 [Trametinib] (first compound max 2 µM, 7x7, partner max 1 µM)",
    "Bliss excess": 0.0459
  },
  {
    "Molecule": "Cc1c2c(nn1C)CSCc1cc(n(C)n1)CSc1cc(c3ccccc3c1)OCCCc1c(C(=O)O)n(C)c3c-2c(Cl)ccc13 [AZD5991] + CN(C)CCCOc1ccc(-c2ccc3ncc4c(c3c2)n(C2CCOCC2)c(=O)n4C)cn1 [AZD0156] (first compound max 1 µM, 7x7, partner max 1 µM)",
    "Bliss excess": -0.0479
  }
]

Could you now look at the following molecule, please?
Param item: CN(CCO)CC[C@H](CSc1ccccc1)Nc1ccc(S(=O)(=O)NC(=O)c2ccc(N3CCC([C@@H](O)c4ccccc4-c4ccc(Cl)cc4)CC3)cc2)cc1S(=O)(=O)C(F)(F)F [AZD4320] + C=CCn1c(=O)c2cnc(Nc3ccc(N4CCN(C)CC4)cc3)nc2n1-c1cccc(C(C)(C)O)n1 [AZD1775] (first compound max 1 µM, partner max 1 µM) ; param system: HuP-T3 (Pancreatic Carcinoma); output Bliss excess: -0.0081
